Value source: ChEMBL document CHEMBL5252514

Molecular target: Kappa-type opioid receptor (Homo sapiens, UniProt P41145)
Sequence (P41145 whole entry): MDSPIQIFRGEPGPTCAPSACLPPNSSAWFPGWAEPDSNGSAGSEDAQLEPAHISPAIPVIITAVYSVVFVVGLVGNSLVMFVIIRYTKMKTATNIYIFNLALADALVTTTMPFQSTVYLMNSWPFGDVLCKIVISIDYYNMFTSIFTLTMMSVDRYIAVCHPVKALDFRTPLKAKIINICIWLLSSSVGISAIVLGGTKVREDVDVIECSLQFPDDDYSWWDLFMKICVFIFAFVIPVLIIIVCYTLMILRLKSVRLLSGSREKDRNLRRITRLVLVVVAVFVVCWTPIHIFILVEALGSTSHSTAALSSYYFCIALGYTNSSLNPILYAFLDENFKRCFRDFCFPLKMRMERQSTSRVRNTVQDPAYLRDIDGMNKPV
Assay: Agonist activity at human kappa opioid receptor expressed in CHO-K1 cells assessed as inhibition of forskolin-stimulated cAMP production incubated for 30 mins by LANCE cAMP assay
Type: cell-based
Where a SMILES comes first, the peptide text is derived from it.

Molecule	Study System	EC50
CC[C@H](C)[C@H](NC(=O)[C@H](CCC(N)=O)NC(=O)[C@H](CCCNC(=N)N)NC(=O)[C@H](CCCNC(=N)N)NC(=O)[C@@H]1CSSC[C@H](NC(=O)[C@@H](N)CC(N)=O)C(=O)N1)C(=O)N[C@H]1CSSC[C@@H](C(N)=O)NC1=O (HELM PEPTIDE1{N.C.C.R.R.Q.I.C.C.[am]}$PEPTIDE1,PEPTIDE1,2:R3-3:R3|PEPTIDE1,PEPTIDE1,8:R3-9:R3$$$V2.0)	Kappa-type opioid receptor (Homo sapiens, UniProt P41145)	9450 nM
CC[C@H](C)[C@H](NC(=O)[C@H](CCC(N)=O)NC(=O)[C@H](CCCNC(=N)N)NC(=O)[C@H](CCCNC(=N)N)NC(=O)[C@@H]1CCC(=O)N1)C(=O)N[C@H]1CSSC[C@@H](C(N)=O)NC1=O (HELM PEPTIDE1{[Glp].R.R.Q.I.C.C.[am]}$PEPTIDE1,PEPTIDE1,6:R3-7:R3$$$V2.0)	Kappa-type opioid receptor (Homo sapiens, UniProt P41145)	1.9 nM
N=C(N)NCCC[C@H](NC(=O)[C@@H]1CCC(=O)N1)C(=O)N[C@@H](CCCNC(=N)N)C(=O)N[C@@H](CCC(N)=O)C(=O)N[C@@H](CC1CCCCC1)C(=O)N[C@H]1CSSC[C@@H](C(N)=O)NC1=O	Kappa-type opioid receptor (Homo sapiens, UniProt P41145)	15.2 nM
N=C(N)NCCC[C@@H](NC(=O)[C@@H](CCCNC(=N)N)NC(=O)[C@@H]1CCCN1C(=O)c1ccccc1)C(=O)N[C@@H](CCC(N)=O)C(=O)N[C@H](C(=O)N[C@H]1CSSC[C@@H](C(N)=O)NC1=O)C1CCCCC1	Kappa-type opioid receptor (Homo sapiens, UniProt P41145)	0.39 nM

* * *

pKi, Kappa-type opioid receptor (Homo sapiens, UniProt P41145): measured values
pKi: −log10 of the molar value.

| Smiles Input | pKi |
| --- | --- |
| N=C(N)NCCC[C@@H](NC(=O)c1cccc(Br)c1)C(=O)N[C@H](CCCNC(=N)N)C(=O)N[C@@H](CCC(N)=O)C(=O)N[C@@H](CC1CCCCC1)C(=O)N[C@H]1CSSC[C@@H](C(N)=O)NC1=O | 8.28 |
| CC1(C)SSC[C@@H](C(N)=O)NC(=O)[C@H]1NC(=O)[C@H](CC1CCCCC1)NC(=O)[C@H](CCC(N)=O)NC(=O)[C@@H](CCCNC(=N)N)NC(=O)[C@@H](CCCNC(=N)N)NC(=O)[C@@H]1CCCN1C(=O)c1ccccc1 | 5.94 |
| N=C(N)NCCC[C@@H](NC(=O)[C@@H](CCCNC(=N)N)NC(=O)[C@@H]1CCCN1C(=O)c1ccccc1)C(=O)N[C@@H](CC(=O)O)C(=O)N[C@@H](CC1CCCCC1)C(=O)N[C@H]1CSSC[C@@H](C(N)=O)NC1=O | 7.99 |
